# Tested on: PC-3 prostate
# PROTOCOL SUMMARY: NCI tumour cell line growth inhibition, 48 h; in the data active = GI50 below about 0.43 µM; inactive = the rest
Output constraint: value belongs to 1 (yes) (active), 0 (no) (inactive)

Example entries begin here.
item_smiles=CCc1c(C)c2cc(-n3c(-c4ccc(OC)cc4)csc3=N)c(O)c(C)c2oc1=O discrete_label="0 (no)"
item_smiles=COc1ccc2c3/c(=C\c4ccc(N(C)C)cc4)c4ccccc4n3[n+](C)c2c1 discrete_label="1 (yes)"
item_smiles=C[C@]12CCC(=O)C[C@@H]1CC[C@@H]1[C@@H]2CC[C@]2(C)[C@@H](OC(=O)N(CCCl)N=O)CC[C@@H]12 discrete_label="0 (no)"
item_smiles=CSc1ccc(C(=O)/C=C/c2ccc(Cl)cc2Cl)cc1 discrete_label="0 (no)"
item_smiles=O=C1/C(=C/c2ccc([N+](=O)[O-])o2)Oc2ccc(Cl)cc21 discrete_label="0 (no)"

Please turn your attention to the following entry.
Q: Assay result, entry CC/C=C\C[C@H]1C/C=C2/C(=O)C(Cl)=C[C@@H]2C/C=C\CCCC(=O)O1 — outcome?
Result: 1 (yes)

====

# Tested on: COLO 205 colon
# PROTOCOL SUMMARY: NCI tumour cell line growth inhibition, 48 h
MEASURED ATTRIBUTE: TGI

Reference set (2 entries):
compound=CSc1nc(SC)c2c(C)cn(COCCOC(=O)c3ccccc3)c2n1 measured_attribute=TGI test_result="> 100 µM"
compound="CC(C)(C)OC(=O)N1N=CCC1c1ccccc1 (stereo not drawn)" measured_attribute=TGI test_result="> 100 µM"

Okay, now this compound:
Q: Tell me measured TGI for CCO/C(O)=c1/s/c(=C(\C#N)c2nc3ccccc3[nH]2)n(-c2ccccc2)c1=N please.
Result: > 100 µM

====

# System: RPMI-8226 leukemia
# PROTOCOL SUMMARY: NCI tumour cell line growth inhibition, 48 h
The following molecules are shown together with reported TGI values.

item_smiles=CCCN(CCC)C(=O)c1c(N2CCN(C)CC2)c2cccnc2n2c(C)cnc12 measured_attribute=TGI test_result="> 100 µM"
item_smiles=O=C1C(Cl)=C(NCCCN(CCCNC2=C(Cl)C(=O)c3ccccc3C2=O)C2=C(Cl)C(=O)c3ccccc3C2=O)C(=O)c2ccccc21 measured_attribute=TGI test_result="> 100 µM"

Moving on to the next molecule.
Q: Specify measured TGI for CSc1nc(SC)c2c(C)cn(COCCOC(=O)c3ccccc3)c2n1 .
Result: > 100 µM

====

Measured TGI, listed per entry.
# Tested on: PC-3 prostate
# PROTOCOL SUMMARY: NCI tumour cell line growth inhibition, 48 h

See these solved cases before continuing.
compound=C(=C/c1nnnn1-c1ccccc1)/Nc1ccccc1 target_system="PC-3 prostate" test_result="> 100 µM"
compound=Cc1ccnc(Nc2[nH]c(C(=O)c3ccc(Cl)cc3)c(N)c2C(=S)Nc2ccccc2)c1 target_system="PC-3 prostate" test_result="> 100 µM"
compound="Cc1cc(O)c2c(c1)C(C1c3cccc(O)c3C(=O)c3c(O)cc(C)cc31)c1cccc(O)c1C2=O (stereo not drawn)" target_system="PC-3 prostate" test_result="2.81 µM"
compound=COc1ccc(N2C(=O)/C(=C/c3ccc(N(CCC#N)CCC#N)cc3)N=C2c2ccccc2)cc1 target_system="PC-3 prostate" test_result="> 100 µM"
compound="COc1cc(S(=O)(=O)Nc2ccc(-c3csc(N4C(=O)CSC4c4ccccc4O)n3)cc2)ccc1Cl (stereo not drawn)" target_system="PC-3 prostate" test_result="> 100 µM"
compound=CN(C)c1ccc2[nH]c3c(C(N)=O)cc(=O)c(=O)c=3oc2c1 target_system="PC-3 prostate" test_result="> 100 µM"
compound=N#Cc1c(N)nc(N2CCOCC2)c(C#N)c1-c1c(Cl)cccc1Cl target_system="PC-3 prostate" test_result="31.1 µM"
compound=CCS(=O)(=O)c1ccc(OC)c(Nc2ncc(-c3cccc(F)c3)o2)c1 target_system="PC-3 prostate" test_result="> 25 µM"

Q: Recall and state the measured TGI for CCC(Nc1ncnc2nc[nH]c12)C(=O)O (stereo not drawn) .
Result: > 100 µM

Q: Tell me measured TGI for CN(C)CC1CCC/C(=C\c2ccc(OC(=O)/C=C/c3ccc(Cl)cc3)cc2)C1=O (stereo not drawn) please.
Result: 11.7 µM

Q: // fetch TGI given entry Cc1c(C(N)=O)sc2nc(C)n(/N=c3\scc(-c4ccccc4)n3Cc3ccccc3)c(=O)c12
Result: 8.31 µM

Q: Read off the recorded TGI for Cc1cc(C)c2c(n1)S(=O)(=O)N(CCCN1CCN(c3cccc(Cl)c3)CC1)/C(=C(\O)c1ccc(Br)cc1)C2=O
Result: > 100 µM

Q: Give a short answer stating reported TGI for Nc1ccn(C2CCC(COP(=O)(O)OCC(O)COP(=O)(O)OCC3OC(n4cc(F)c(=O)[nH]c4=O)CC3O)O2)c(=O)n1 (stereo not drawn) .
Result: > 100 µM
